molecular target: TetR (Escherichia coli); construct: His tag; made in house; host or cells: E. coli BL21 Star (DE3); assay: TetR biosensor, Cas12a cleavage reaction with fluorescence readout, detection of aTc and Doxy; assay type: biochemical; details: EC:50, 100 nM dsDNA, 10 μM TF (TetR), 1 h, 50-fold TetR dimer:DNA
Sequence (P04483 whole entry): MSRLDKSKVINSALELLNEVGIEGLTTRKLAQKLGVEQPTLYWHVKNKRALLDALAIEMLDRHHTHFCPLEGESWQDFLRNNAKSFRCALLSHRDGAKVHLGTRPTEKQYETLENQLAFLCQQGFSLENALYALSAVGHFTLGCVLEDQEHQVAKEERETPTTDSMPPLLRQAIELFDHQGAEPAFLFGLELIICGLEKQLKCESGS
pEC50: −log10 of the molar value. Where a name gives a salt, the structure may show the parent alone.
Quick reference: pEC50 of the listed items.

- Molecule: "C[C@H]1c2cccc(O)c2C(=O)C2=C(O)[C@]3(O)C(=O)C(C(N)=O)=C(O)[C@@H](N(C)C)[C@@H]3[C@@H](O)[C@@H]21"
  pEC50: 6.02
- Molecule: "Cc1c2c(c(O)c3c(O)cccc13)C(=O)[C@]1(O)C(=O)C(C(N)=O)=C(O)[C@@H](N(C)C)[C@@H]1C2 [aTc, anhydrotetracycline-HCl]"
  pEC50: 5.35

Reference source: patent US20240094229A1
